- Tested on: P. falciparum
- method.description: Intraerythrocytic growth of malaria parasites (toxicity to the parasite)
- Assay type: cell-based
- study.conditions: applicant's own finding, contrary to Vanderberg et al.
recorded.metric: intraerythrozytäre Parasiten-Wachstum (toxisch)

>>> df
                                   compound         result
0  C[C@@H]1OC(O)[C@@H](O)[C@H](O)[C@@H]1O (stereo partly drawn) [L-Fucose]  nicht toxisch
1  CO[C@H]1O[C@H](CO)[C@@H](O)[C@H](O)[C@H]1NC(C)=O [α-DGlcNAcOMe]  nicht toxisch
2  CO[C@@H]1O[C@H](CO)[C@@H](O)[C@H](O)[C@H]1NC(C)=O [β-DGlcNAcOMe]  nicht toxisch
